Where do these numbers come from? They come from paper PMC9849758.

study-target: uPA (Homo sapiens)
Construct: purchased HYPHEN BioMed
method: Jump dilution, determination of inhibition type
Format: biochemical
condition-label: inhibitor at 10 times IC50, 15 min, diluted 10-fold or 100-fold; Rev./Irrev.
measured-metric: uPA jump dilution result

{"compound": "CC(=O)Nc1ccc(OP(=O)(Oc2ccc(NC(C)=O)cc2)C(Cc2ccc(NC(=N)N)cc2)NC(=O)OCCCc2cn(CCOCCOCCOCCNC(=O)CCCCC[C@H]3NC(=O)N[C@H]3C)nn2)cc1 (stereo partly shown) [52b]", "measured-metric": "uPA jump dilution result", "result": "Irrev."}
{"compound": "C#CCCCOC(=O)NC(c1ccc(NC(=N)N)cc1)P(=O)(Oc1ccc(Cl)cc1)Oc1ccc(Cl)cc1 (stereo not shown) [39b]", "measured-metric": "uPA jump dilution result", "result": "Irrev."}
{"compound": "C#CCCCOC(=O)NC(c1ccc(NC(=N)N)cc1)P(=O)(Oc1ccc(NC(C)=O)cc1)Oc1ccc(NC(C)=O)cc1 (stereo not shown) [38b]", "measured-metric": "uPA jump dilution result", "result": "Irrev."}
{"compound": "C#CCCCOC(=O)NC(c1ccc(NC(=N)N)cc1)P(=O)(Oc1ccccc1)Oc1ccccc1.O=C(O)C(F)(F)F (stereo not shown) [37b]", "measured-metric": "uPA jump dilution result", "result": "Irrev."}
{"compound": "C#CCCCOC(=O)NC(Cc1ccc(NC(=N)N)cc1)P(=O)(Oc1ccc(NC(C)=O)cc1)Oc1ccc(NC(C)=O)cc1 (stereo not shown) [35b]", "measured-metric": "uPA jump dilution result", "result": "Irrev."}
{"compound": "C[C@@H]1NC(=O)N[C@@H]1CCCCCC(=O)NCCOCCOCCOCCn1cc(CCCOC(=O)NC(Cc2ccc(NC(=N)N)cc2)P(=O)(Oc2ccccc2)Oc2ccccc2)nn1 (stereo partly shown) [50b]", "measured-metric": "uPA jump dilution result", "result": "Irrev."}
{"compound": "CC(=O)Nc1ccc(OP(=O)(Oc2ccc(NC(C)=O)cc2)C(NC(=O)OCCCc2cn(CCOCCOCCOCCNC(=O)CCCCC[C@H]3NC(=O)N[C@H]3C)nn2)c2ccc(NC(=N)N)cc2)cc1 (stereo partly shown) [56b]", "measured-metric": "uPA jump dilution result", "result": "Irrev."}

* * *

study-target: Cathepsin G (cathepsin G human neutrophil) (Homo sapiens, UniProt P08311)
Construct: Cathepsin G (cathepsin G human neutrophil, Sigma-Aldrich); purchased Sigma-Aldrich; host or cells: human neutrophil
Sequence (P08311 21-255): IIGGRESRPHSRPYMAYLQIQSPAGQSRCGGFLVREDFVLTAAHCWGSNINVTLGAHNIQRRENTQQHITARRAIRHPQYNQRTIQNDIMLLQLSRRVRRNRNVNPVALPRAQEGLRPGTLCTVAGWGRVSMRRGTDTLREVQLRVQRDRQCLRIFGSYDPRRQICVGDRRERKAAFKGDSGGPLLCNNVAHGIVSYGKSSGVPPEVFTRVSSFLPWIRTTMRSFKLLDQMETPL
method: IC50 determination, spectrophotometric protease assay
Type: biochemical
condition-label: read-out: CatG IC50; desthiobiotin probes; 15 min preincubation at 37°C; mean ± SD
pIC50: −log10 of the molar value.

{"molecule": "C[C@@H]1NC(=O)N[C@@H]1CCCCCC(=O)NCCOCCOCCOCCn1cc(CCCOC(=O)NC(c2ccc(NC(=N)N)cc2)P(=O)(Oc2ccccc2)Oc2ccccc2)nn1 (stereo partly shown) [55b]", "study-target": "Cathepsin G (cathepsin G human neutrophil) (Homo sapiens, UniProt P08311)", "bound-operator": "=", "pIC50": 5.79}
{"molecule": "CC(=O)Nc1ccc(OP(=O)(Oc2ccc(NC(C)=O)cc2)C(CCCCN)NC(=O)OCCCc2cn(CCOCCOCCOCCNC(=O)CCCCC[C@H]3NC(=O)N[C@H]3C)nn2)cc1 (stereo partly shown) [49b]", "study-target": "Cathepsin G (cathepsin G human neutrophil) (Homo sapiens, UniProt P08311)", "bound-operator": "=", "pIC50": 5.35}
{"molecule": "CC(=O)Nc1ccc(OP(=O)(Oc2ccc(NC(C)=O)cc2)C(NC(=O)OCCCc2cn(CCOCCOCCOCCNC(=O)CCCCC[C@H]3NC(=O)N[C@H]3C)nn2)c2ccc(NC(=N)N)cc2)cc1 (stereo partly shown) [56b]", "study-target": "Cathepsin G (cathepsin G human neutrophil) (Homo sapiens, UniProt P08311)", "bound-operator": "=", "pIC50": 6.21}
{"molecule": "C[C@@H]1NC(=O)N[C@@H]1CCCCCC(=O)NCCOCCOCCOCCn1cc(CCCOC(=O)NC(CCCNC(=N)N)P(=O)(Oc2ccccc2)Oc2ccccc2)nn1 (stereo partly shown) [45b]", "study-target": "Cathepsin G (cathepsin G human neutrophil) (Homo sapiens, UniProt P08311)", "bound-operator": "<", "pIC50": 5.00}
{"molecule": "C[C@@H]1NC(=O)N[C@@H]1CCCCCC(=O)NCCOCCOCCOCCn1cc(CCCOC(=O)NC(c2ccc(NC(=N)N)cc2)P(=O)(Oc2ccc(Cl)cc2)Oc2ccc(Cl)cc2)nn1 (stereo partly shown) [57b]", "study-target": "Cathepsin G (cathepsin G human neutrophil) (Homo sapiens, UniProt P08311)", "bound-operator": "=", "pIC50": 6.92}
{"molecule": "C[C@@H]1NC(=O)N[C@@H]1CCCCCC(=O)NCCOCCOCCOCCn1cc(CCCOC(=O)NC(CCCNC(=N)N)P(=O)(Oc2ccc(Cl)cc2)Oc2ccc(Cl)cc2)nn1 (stereo partly shown) [46b]", "study-target": "Cathepsin G (cathepsin G human neutrophil) (Homo sapiens, UniProt P08311)", "bound-operator": "<", "pIC50": 5.00}
{"molecule": "C[C@@H]1NC(=O)N[C@@H]1CCCCCC(=O)NCCOCCOCCOCCn1cc(CCCOC(=O)NC(CCCCN)P(=O)(Oc2ccccc2)Oc2ccccc2)nn1 (stereo partly shown) [47b]", "study-target": "Cathepsin G (cathepsin G human neutrophil) (Homo sapiens, UniProt P08311)", "bound-operator": "<", "pIC50": 5.00}
